A collection of compounds and their measured z-score
experiment: HepG2 cell viability effects, profiling panel, calcein-AM fluorescence, 48 h, basal (AID 1164); conditions: higher = more signal; also: test concentration not given here
Parameter Measured: z-score

CCOC(=O)C[C@H]1[C@H](OC(=O)c2ccccc2-c2ccccc2)[C@@H](NC(=O)c2ccc3ccccc3c2)c2cc(OCCCO)ccc2N1C(=O)c1ccc2ccccc2n1
-0.0645
O=C1c2ccccc2[C@@]2(Cc3ccccc3N(Cc3ccccc3)C2=O)[C@H](c2ccc(CO)cc2)N1C1CCCCC1
-0.466
CCC(CC)C(O)C1C=CC2C(=O)N(c3ccccc3)C(=O)C2N1Nc1ccc(C#N)cc1 (stereo not given)
-0.136
COc1ccc(C#Cc2ccc3c(c2)[C@]2(C(=O)N3)[C@H](c3ccc(O)cc3)N3[C@H](c4ccccc4)[C@H](c4ccccc4)OC(=O)[C@H]3[C@@H]2C(=O)N2CCCCCCC2)cc1
0.629
COc1cc2c(cc1O)C(C)N(Cc1cccc(OC(F)(F)F)c1)CC2 (stereo not given)
-1.51
CC(C)c1ccc(NN2C(C(O)c3ccc(N(C)C)cc3)C=CC3C(=O)N(c4ccccc4)C(=O)C32)cc1 (stereo not given)
0.974
O=C1O[C@@H](c2ccccc2)[C@@H](c2ccccc2)N2[C@@H](c3ccccc3OCCO)[C@]3(C(=O)Nc4ccc(C#CC5(O)CCCCCC5)cc43)[C@@H](C(=O)Nc3nc4ccccc4s3)[C@H]12
-3
O=C1OCCC/C=C\[C@H]2OC34C=CCN(Cn5nnc6ccccc65)C(=O)[C@H]3N(CCCCCO)C(=O)[C@@H]4C12 (stereo not given in full)
-1.02
O=C1C2C=CC(C(O)c3ccc(B(O)O)cc3)N(Nc3ccccc3)C2C(=O)N1c1ccccc1 (stereo not given)
-1.38
CCOC(=O)C1=CC[C@@H](c2ccccc2Cl)N(S(=O)(=O)c2ccc(C)cc2)C1
0.15
CCCN1C(=O)[C@@]2(CCC(=O)OC(C)(C)C)N=C(c3ccc(OCCCO)cc3)O[C@H]2c2ccccc21
-2.09
COC(=O)[C@@]1(Cc2ccc(F)cc2)[C@H]2c3cc(C(=O)N(C)C)n(CCc4ccccn4)c3C[C@H]2CN1C(=O)c1ccccc1
-1.39
CCOC(=O)C[C@H]1[C@H](OC(=O)c2ccccc2-c2ccccc2)[C@@H](NC(=O)Cc2ccc(OC)cc2)c2cc(OCCCO)ccc2N1C(=O)c1ccccc1
0.41
O=C(CS)NCCCCCCNC(=O)[C@H]1C[C@H]2C(=O)NCC(=O)N2[C@H]1c1ccc(O)cc1
0.555
CC(C)C(O)C1C=CC2C(=O)N(c3ccccc3)C(=O)C2N1Nc1ccc(C#N)cc1 (stereo not given)
-0.114
